Target: cathepsin D isolated from the human liver (Homo sapiens)
Construct: cathepsin D isolated from the human liver (Sigma-Aldrich); purchased Sigma-Aldrich; host or cells: human liver (tissue-derived, not recombinant)
Sequence (P07339 65-161 limits assumed): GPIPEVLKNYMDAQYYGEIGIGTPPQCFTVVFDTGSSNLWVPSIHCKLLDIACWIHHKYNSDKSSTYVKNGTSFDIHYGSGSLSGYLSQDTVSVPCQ
Sequence (P07339 169-412 limits assumed): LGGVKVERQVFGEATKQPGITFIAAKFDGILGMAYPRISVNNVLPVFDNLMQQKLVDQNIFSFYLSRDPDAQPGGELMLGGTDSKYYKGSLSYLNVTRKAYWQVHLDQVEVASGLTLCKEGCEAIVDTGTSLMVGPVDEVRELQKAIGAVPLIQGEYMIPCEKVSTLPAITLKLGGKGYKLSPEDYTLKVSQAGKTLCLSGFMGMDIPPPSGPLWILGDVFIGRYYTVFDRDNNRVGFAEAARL
Test: In-vitro fluorescence assay for identification of cathepsin D inhibitors
Format: biochemical
Conditions: human liver cathepsin D 1.4 nM, pH 5.5; read-out: CatD assay IC50-(M)
Protocol: EXAMPLE 4: IN-VITRO FLUORESCENCE ASSAY FOR IDENTIFICATION OF CATHEPSIN D INHIBITORS In order to identify modulators of cathepsin D activity, a continuous enzymatic test was carried out with a synthetic peptide which carries a fluorescent group (MCA=(7-methoxycoumarin-4-yl)acetyl) which is quenched by energy transfer from a Dpn (2,4 dinitrophenyl) group on the same molecule, in Greiner 384-well nb microtitre plates. […]
*1 amine or outer side, *2 acyl side, *3 side chain or, on linkers, in order; H or OH if unused. Where a SMILES comes first, the peptide text is derived from it. [ ]: non-standard residue; d: D form. The star is where a group is joined. Ahppa(3S,4S) = O=C(C[C@H](O)[C@H](Cc1ccccc1)N[*:1])[*:2]; PhAc = O=C(Cc1ccccc1)*
property.name: IC50 (M)
Write the value in M as a bare number.

| compound | IC50 (M) |
| --- | --- |
| CC[C@H](C)[C@H](NC(=O)C[C@H](O)[C@H](Cc1ccccc1)NC(=O)[C@@H](NC(=O)CCCc1ccccc1)C(C)C)C(=O)N[C@H](C(=O)OCc1ccccc1)C(C)C | 7.1e-08 |
| CC[C@H](C)[C@H](NC(=O)C[C@H](O)[C@H](Cc1ccccc1)NC(=O)[C@@H](NC(=O)Cc1ccccc1OC)C(C)C)C(=O)N[C@H](C(=O)O)C(C)C | 1.6e-07 |
| CC[C@H](C)[C@H](NC(=O)C[C@H](O)[C@H](Cc1ccccc1)NC(=O)[C@@H](NC(=O)Cc1cccc(Oc2ccccc2)c1)C(C)C)C(=O)N[C@H](C(=O)OCc1ccccc1)C(C)C | 4e-08 |
| CCC(CC)NC(=O)[C@@H](NC(=O)C[C@H](O)[C@H](Cc1ccccc1)NC(=O)[C@@H](NC(=O)[C@H](CC(C)C)NC(=O)CC(C)C)C(C)C)C(C)C | 6.5e-10 |
| CCC(CC)NC(=O)[C@@H](NC(=O)C[C@H](O)[C@H](Cc1ccccc1)NC(=O)[C@@H](NC(=O)[C@H](CC(C)C)NC(=O)CC(C)C)C(C)C)[C@@H](C)CC | 1.3e-09 |

Reported IC50 of `CC[C@H](C)[C@H](NC(=O)C[C@H](O)[C@H](Cc1ccccc1)NC(=O)[C@@H](NC(=O)Cc1cccc(OC)c1)C(C)C)C(=O)N[C@H](C(=O)O)C(C)C` : 1.2e-08

Reported IC50 of `CC[C@H](C)[C@H](NC(=O)C[C@H](O)[C@H](Cc1ccccc1)NC(=O)[C@@H](NC(=O)C(c1ccccc1)c1ccccc1)C(C)C)C(=O)N[C@H](C(=O)O)C(C)C` : 1.6e-08

Reported IC50 of CC[C@H](C)[C@H](NC(=O)C[C@H](O)[C@H](Cc1ccccc1)NC(=O)[C@@H](NC(=O)[C@H](CC(C)C)NC(=O)Cc1ccccc1)C(C)C)C(=O)N[C@H](C(=O)O)C(C)C [Compound 45] (PhAc-LV[Ahppa(3S,4S)]IV-OH) : 3.5e-10

Reported IC50 of `CC[C@H](C)[C@H](NC(=O)C[C@H](O)[C@H](Cc1ccccc1)NC(=O)[C@@H](NC(=O)Cc1ccc(OC)cc1)C(C)C)C(=O)N[C@H](C(=O)OCc1ccccc1)C(C)C` : 9e-08

Reported IC50 of `CC[C@H](C)[C@H](NC(=O)C[C@H](O)[C@H](Cc1ccccc1)NC(=O)[C@@H](NC(=O)Cc1cccc2ccccc12)C(C)C)C(=O)N[C@H](C(=O)O)C(C)C` : 8.5e-08
